measurementTarget: Aurora kinase B (Homo sapiens, UniProt Q96GD4)
Sequence (Q96GD4 whole entry): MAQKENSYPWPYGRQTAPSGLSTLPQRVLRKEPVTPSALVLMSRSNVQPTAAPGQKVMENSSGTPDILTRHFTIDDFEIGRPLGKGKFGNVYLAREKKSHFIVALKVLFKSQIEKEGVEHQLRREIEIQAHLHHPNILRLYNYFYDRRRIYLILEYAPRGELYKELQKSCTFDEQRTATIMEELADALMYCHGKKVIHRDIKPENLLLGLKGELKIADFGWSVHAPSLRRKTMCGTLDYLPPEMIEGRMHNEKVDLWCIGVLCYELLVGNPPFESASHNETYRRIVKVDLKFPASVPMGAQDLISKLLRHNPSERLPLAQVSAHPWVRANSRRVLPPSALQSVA
testDescription: Inhibition of GST tagged recombinant Aurora B expressed in Hi-5 cells after 1 hr by TRF assay
resultType: pIC50
Answers are plain numbers, as −log10 of the molar value.

Lab note: "CN1CCN(Cc2cccc(/C=C/c3n[nH]c4ccc(NC(=O)Cc5cccs5)cc34)c2)CC1" gave pIC50 of 7.59

Please state, for each entry, its recorded pIC50.
1. O=C(Cc1cccs1)Nc1cc2c(/C=C/c3ccccc3)n[nH]c2cc1N1CCCC1
2. COc1ccc(OC)c(CC(=O)Nc2cc3c(/C=C/c4ccccc4)n[nH]c3cc2C)c1
3. Cc1cc(N)cc(-c2ccc3[nH]nc(/C=C/c4cccc(CN5CCN(C)CC5)c4)c3c2C)c1
4. Cc1cc2[nH]nc(/C=C/c3cccc(CN4CCN(C)CC4)c3)c2cc1NC(=O)Cc1cccs1
5. C(=C\c1n[nH]c2cc(N3CCCC3)c(-c3ccncc3)cc12)/c1ccccc1
6. Cc1cc2[nH]nc(/C=C/c3ccccc3)c2cc1NC(=O)Cc1cccs1
7. O=[N+]([O-])c1cc2c(/C=C/c3ccccc3)n[nH]c2cc1N1CCCC1
8. Cc1cc2[nH]nc(/C=C/c3cccc(NC(=O)N4CCN(C)CC4)c3)c2cc1NC(=O)Cc1cccs1

A)
[6.96, 6.74, 7.51, 6.89, 7.34, 7.33, 6.96, 7.34]

---

testDescription: Selectivity ratio of IC50 for recombinant Aurora A to IC50 for recombinant Aurora B
resultType: Ratio IC50

Check out these entries, answers already filled in.
Lab book: Ratio IC50 of "C(=C\c1n[nH]c2cc(N3CCCC3)c(-c3ccncc3)cc12)/c1ccccc1" noted as 3.5

The reported value for "O=S(=O)(Cc1ccccc1)Nc1ccc2[nH]nc(/C=C/c3ccccc3)c2c1" in terms of Ratio IC50 is 1.1

Form: compound = "O=C(Cc1cccs1)Nc1cc2c(/C=C/c3ccccc3)n[nH]c2cc1N1CCCC1" ; Ratio IC50 = 0.8

Could I get Ratio IC50 for every one of these entries?
1. Cc1cc2[nH]nc(/C=C/c3cccc(CN4CCN(C)CC4)c3)c2cc1NC(=O)Cc1cccs1
2. Cc1cc2[nH]nc(/C=C/c3cccc(NC(=O)N4CCN(C)CC4)c3)c2cc1NC(=O)Cc1cccs1
3. CN1CCN(Cc2cccc(/C=C/c3n[nH]c4ccc(NC(=O)Cc5cccs5)cc34)c2)CC1
4. Cc1c(NC(=O)Cc2cccs2)ccc2[nH]nc(/C=C/c3cccc(CN4CCN(C)CC4)c3)c12
5. O=[N+]([O-])c1cc2c(/C=C/c3ccccc3)n[nH]c2cc1N1CCCC1
6. Cc1cc(N)cc(-c2ccc3[nH]nc(/C=C/c4cccc(CN5CCN(C)CC5)c4)c3c2C)c1
7. CN1CCN(c2cc3[nH]nc(/C=C/c4ccccc4)c3cc2NCc2ccccn2)CC1

A)
1. 0.6
2. 0.28
3. 1.3
4. 19
5. 2.2
6. 11.3
7. > 12

Report Ratio IC50 for every entry below.
1. COc1ccc(OC)c(CC(=O)Nc2cc3c(/C=C/c4ccccc4)n[nH]c3cc2C)c1
2. CN1CCN(C(=O)Nc2cccc(/C=C/c3n[nH]c4cc(N5CCCC5)c(NS(C)(=O)=O)cc34)c2)CC1
3. Cc1c(C#N)ccc2[nH]nc(/C=C/c3cccc(CN4CCN(C)CC4)c3)c12
4. Nc1cc2c(/C=C/c3ccccc3)n[nH]c2cc1N1CCCC1
5. C(=C\c1n[nH]c2cc(N3CCCC3)c(NCc3ccccn3)cc12)/c1ccccc1

A)
1. 0.23
2. 2.3
3. 4.7
4. 2.5
5. 5

---

measurementTarget: Aurora kinase A (Homo sapiens, UniProt O14965)
Sequence (O14965 whole entry): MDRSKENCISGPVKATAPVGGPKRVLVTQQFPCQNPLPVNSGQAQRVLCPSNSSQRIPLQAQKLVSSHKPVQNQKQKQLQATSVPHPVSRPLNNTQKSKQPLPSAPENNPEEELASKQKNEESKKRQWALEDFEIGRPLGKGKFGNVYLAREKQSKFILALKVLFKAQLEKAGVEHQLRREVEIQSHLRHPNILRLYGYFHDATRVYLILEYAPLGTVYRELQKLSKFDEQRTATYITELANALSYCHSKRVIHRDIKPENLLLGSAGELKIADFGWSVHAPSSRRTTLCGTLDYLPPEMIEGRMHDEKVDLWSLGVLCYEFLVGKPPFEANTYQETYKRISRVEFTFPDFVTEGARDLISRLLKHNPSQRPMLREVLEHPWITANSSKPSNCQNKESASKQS
testDescription: Inhibition of hexahistidine tagged recombinant Aurora A expressed in Hi-5 cells assessed as ATP remaining after 2 hrs by bioluminescence
pIC50: −log10 of the molar value.
Binary classification by pIC50, with 7 as an inclusive lower bound for condition met; all other cases are condition not met.

Q) # bool: pIC50 of "O=C(Cc1ccccc1)Nc1ccc2[nH]nc(CCc3ccccc3)c2c1" >= 7
A) condition not met

Q) Is it the case that "Cc1cc(N)cc(-c2ccc3[nH]nc(/C=C/c4cccc(CN5CCN(C)CC5)c4)c3c2C)c1" has pIC50 reaching or exceeding 7?
A) condition not met

Q) Record "Cc1c(C#N)ccc2[nH]nc(/C=C/c3cccc(CN4CCN(C)CC4)c3)c12" ; criterion: pIC50 no lower than 7. Met?
A) condition not met

Q) Does the reported pIC50 for "O=S(=O)(Cc1ccccc1)Nc1ccc2[nH]nc(/C=C/c3ccccc3)c2c1" fall at or above the 7 mark?
A) condition met

Q) Determine whether this molecule has pIC50 no lower than 7: O=C(Cc1ccccc1)Nc1ccc2[nH]nc(C3CC3c3ccccc3)c2c1 (stereo unspecified)
A) condition not met

Q) Dear colleague, could you confirm whether "Cc1cc2[nH]nc(/C=C/c3ccccc3)c2cc1NC(=O)Cc1cccs1" has pIC50 at or above 7?
A) condition met

Q) Given "C(=C\c1n[nH]c2cc(N3CCCC3)c(NCc3ccccn3)cc12)/c1ccccc1" , state whether its pIC50 is at least 7.
A) condition not met

Q) I'd appreciate it if you could say whether "O=[N+]([O-])c1cc2c(/C=C/c3ccccc3)n[nH]c2cc1N1CCCC1" has pIC50 at least equal to 7.
A) condition not met

Q) Hi team, for "CN1CCN(Cc2cccc(/C=C/c3n[nH]c4ccc(NC(=O)Cc5cccs5)cc34)c2)CC1" , is the recorded pIC50 at or above 7?
A) condition met

Q) hey, is pIC50 for this one >= 7? "Cc1c(NC(=O)Cc2cccs2)ccc2[nH]nc(/C=C/c3cccc(CN4CCN(C)CC4)c3)c12"
A) condition not met

Continue with the molecule presented below.
Q) Is pIC50 at least 7? Consider "COc1ccc(OC)c(CC(=O)Nc2cc3c(/C=C/c4ccccc4)n[nH]c3cc2C)c1"
A) condition met

---

measurementTarget: UniProt:Q96GD4
testDescription: Inhibition of GST tagged recombinant Aurora B expressed in Hi-5 cells after 1 hr by TRF assay
resultType: IC50 (nM)
Numbers only, in nM.

Recorded IC50 (compound "Cc1cc2[nH]nc(C#Cc3ccccc3)c2cc1NC(=O)Cc1cccs1" ): 110

Sure, the documented IC50 for "CN1CCN(c2cc3[nH]nc(/C=C/c4ccccc4)c3cc2NCc2ccccn2)CC1" is 810

So, "Cc1c(NC(=O)Cc2cccs2)ccc2[nH]nc(/C=C/c3cccc(CN4CCN(C)CC4)c3)c12" ? Its IC50 was 99

Please report IC50 for every entry that follows.
1. CN1CCN(C(=O)Nc2cccc(/C=C/c3n[nH]c4cc(N5CCCC5)c(NS(C)(=O)=O)cc34)c2)CC1
2. O=C(Cc1ccccc1)Nc1ccc2[nH]nc(C3CC3c3ccccc3)c2c1 (centres undefined)
3. Cc1c(C#N)ccc2[nH]nc(/C=C/c3cccc(CN4CCN(C)CC4)c3)c12
4. C(=C\c1n[nH]c2cc(N3CCCC3)c(NCc3ccccn3)cc12)/c1ccccc1

A)
1. 62
2. 1640
3. 59
4. 130

Give IC50 for each listed item.
1. Nc1cc2c(/C=C/c3ccccc3)n[nH]c2cc1N1CCCC1
2. O=S(=O)(Cc1ccccc1)Nc1ccc2[nH]nc(/C=C/c3ccccc3)c2c1

A)
1. 81
2. 31

---

measurementTarget: Aurora kinase A (Homo sapiens, UniProt O14965)
testDescription: Inhibition of hexahistidine tagged recombinant Aurora A expressed in Hi-5 cells assessed as ATP remaining after 2 hrs by bioluminescence
We label by threshold. Values of IC50 strictly beneath 90 nM are class 1. Values of 90 nM and up are class 0.

Q) Consider "Cc1cc2[nH]nc(/C=C/c3cccc(CN4CCN(C)CC4)c3)c2cc1NC(=O)Cc1cccs1" . Does its IC50 lie strictly below 90 nM?
A) class 1

***
Q) Input "C(=C\c1n[nH]c2cc(N3CCCC3)c(-c3ccncc3)cc12)/c1ccccc1" ; condition: IC50 strictly below 90 nM. Does it hold?
A) class 0

Q) Record "Nc1cc2c(/C=C/c3ccccc3)n[nH]c2cc1N1CCCC1" : is its IC50 strictly below 90 nM?
A) class 0

Q) State whether 90 nM exceeds IC50 recorded for "CN1CCN(C(=O)Nc2cccc(/C=C/c3n[nH]c4cc(N5CCCC5)c(NS(C)(=O)=O)cc34)c2)CC1" .
A) class 0

Q) is_below(IC50, 90 nM) for "O=C(Cc1ccccc1)Nc1ccc2[nH]nc(/C=C/c3ccccc3)c2c1" ?
A) class 1

Q) I wonder whether "Cc1cc2[nH]nc(C#Cc3ccccc3)c2cc1NC(=O)Cc1cccs1" has IC50 below 90 nM. Can you tell?
A) class 0

Q) Decide: IC50 of "Cc1cc2[nH]nc(/C=C/c3cccc(NC(=O)N4CCN(C)CC4)c3)c2cc1NC(=O)Cc1cccs1" strictly below 90 nM?
A) class 1

Q) Hello, is IC50 of the following compound strictly smaller than 90 nM? "Cc1cc2[nH]nc(/C=C/c3ccccc3)c2cc1NC(=O)Cc1ccccc1"
A) class 1

Q) Check if IC50 falls below 90 nM for "CN1CCN(c2cc3[nH]nc(/C=C/c4ccccc4)c3cc2NCc2ccccn2)CC1" .
A) class 0

Cited source: ChEMBL document CHEMBL1156203
